MEASUREMENT DESCRIPTION: Maximal UV absorbance of MAAs by HPLC with PDA detector
Format: physicochemical
TEST CONTEXT: compound produced in engineered E. coli, methanolic extract of cell pellets
REPORTED ENDPOINT: maximal absorbance (nm)
One number for each entry, in nm.

// known answers, use as guide
• COC1=C(N)C[C@@](O)(CO)C/C1=N\[C@H](C(=O)O)C(C)O (stereo partly drawn) [palythine-Thr] = 320
• COC1=C(NCC(=O)O)C[C@@](O)(CO)CC1=O [MG, mycosporine-glycine] = 310
• COC1=C(O)CC(O)(CO)CC1=O (stereo not drawn) [4-DG, 4-deoxygadusol] = 294

maximal absorbance in this record for COC1=C(N)CC(O)(CO)CC1=NC(CO)C(=O)O (stereo not drawn) [Palythine-Ser, palythine-Ser] : 320
